Parameter Triglyceride (500 μM) aver.: see the listing below.
# Tested on: HepG2 cells
# assay.summary: Measurement of triglyceride synthesis inhibitory ability
# Type: cell-based
# test.context: 500 μM compound, 24 hours, HepG2 cells; content of triglyceride formed; lower value = stronger inhibition
The response must contain the number and no unit.

>  <smiles.str>
COc1ccc(CN=C(NCc2ccc3c(c2)OCO3)NC(=N)N)cc1.Cl

>  <system>
HepG2 cells

>  <result.number>
58.60

$$$$

Attention now shifts to the item below.
Task: Any idea what Triglyceride (500 μM) aver. came out for Cl.N=C(N)NC(=Nc1ccc(Br)cc1)NCc1ccc2c(c1)OCO2 on HepG2 cells?
Result: 17.38
